Reference source for all entries: patent US9326506B2

# Tested on: rice seed
# assayProcedure: Salt tolerance assay: germination of rice seed under high salt environment
# Format: in vivo
# settings: sample 0.001 mg/l, salt 500 mg/l

compound: C=C(C(C)C)[C@@H](O)[C@H](O)[C@@H](C)[C@H]1CCC2C3COC(=O)C4C[C@H](O)[C@H](O)C[C@]4(C)C3CC[C@@]21C (stereo partly shown)
unitInfo: %
Germination rate: 40
--
compound: CC(C)[C@H](C)[C@@H](O)[C@H](O)[C@@H](C)[C@H]1CCC2C3COC(=O)C4C[C@H](O)[C@H](O)C[C@]4(C)C3CC[C@@]21C (stereo partly shown)
unitInfo: %
Germination rate: 45
--
compound: CC[C@@H](C(C)C)[C@@H](O)[C@H](O)[C@@H](C)[C@H]1CCC2C3COC(=O)C4C[C@H](O)[C@H](O)C[C@]4(C)C3CC[C@@]21C (stereo partly shown)
unitInfo: %
Germination rate: 40
--
compound: CC(C)[C@H](C)[C@@H](O)[C@H](O)[C@@H](C)[C@H]1CCC2C3CC(=O)C4C[C@H](O)CC[C@]4(C)C3CC[C@@]21C (stereo partly shown)
unitInfo: %
Germination rate: 43

* * *

# Test system: rice
# assayProcedure: Low temperature assay on rice seedlings
# Format: in vivo
# settings: 1 mg/l, 2 °C, 9 days

molecule: CC(C)C[C@@H](O)[C@H](O)[C@@H](C)[C@H]1CCC2C3CC(=O)C4C[C@H](O)[C@H](O)C[C@]4(C)C3CC[C@@]21C (stereo partly drawn)
unitInfo: cm
Height: 7.2

molecule: C=C(C(C)C)[C@@H](O)[C@H](O)[C@@H](C)[C@H]1CCC2C3COC(=O)C4C[C@H](O)[C@H](O)C[C@]4(C)C3CC[C@@]21C (stereo partly drawn)
unitInfo: cm
Height: 7.4

molecule: CC(C)(O)CC[C@@H](O)[C@](C)(O)[C@H]1CC[C@@]2(O)[C@@H]3CC(=O)[C@@H]4C[C@@H](O)[C@@H](O)C[C@]4(C)[C@H]3CC[C@]12C
unitInfo: cm
Height: 7.3

molecule: CC(C)[C@H](C)[C@@H](O)[C@H](O)[C@@H](C)[C@H]1CCC2C3CC(=O)C4C[C@H](O)CC[C@]4(C)C3CC[C@@]21C (stereo partly drawn)
unitInfo: cm
Height: 7.4

molecule: CC[C@@H](C(C)C)[C@@H](O)[C@H](O)[C@@H](C)[C@H]1CCC2C3COC(=O)C4C[C@H](O)[C@H](O)C[C@]4(C)C3CC[C@@]21C (stereo partly drawn)
unitInfo: cm
Height: 7.3

molecule: CC(C)[C@H](C)[C@@H](O)[C@H](O)[C@@H](C)[C@H]1CCC2C3COC(=O)C4C[C@H](O)[C@H](O)C[C@]4(C)C3CC[C@@]21C (stereo partly drawn)
unitInfo: cm
Height: 7.3

* * *

# Tested on: rice seed
# assayProcedure: Salt tolerance assay: germination of rice seed under high salt environment
# Assay type: in vivo
# settings: sample 1 mg/l, salt 500 mg/l
Germination rate values for the compounds below.
assayEndpoint: Germination rate (%)

compound: CC(C)[C@H](C)[C@@H](O)[C@H](O)[C@@H](C)[C@H]1CCC2C3CC(=O)C4C[C@H](O)CC[C@]4(C)C3CC[C@@]21C (stereo partly shown)
assayEndpoint: Germination rate
unitInfo: %
numericReadout: 50
//
compound: C=C(C(C)C)[C@@H](O)[C@H](O)[C@@H](C)[C@H]1CCC2C3COC(=O)C4C[C@H](O)[C@H](O)C[C@]4(C)C3CC[C@@]21C (stereo partly shown)
assayEndpoint: Germination rate
unitInfo: %
numericReadout: 40
//
compound: CC(C)[C@H](C)[C@@H](O)[C@H](O)[C@@H](C)[C@H]1CCC2C3COC(=O)C4C[C@H](O)[C@H](O)C[C@]4(C)C3CC[C@@]21C (stereo partly shown)
assayEndpoint: Germination rate
unitInfo: %
numericReadout: 50
//
compound: CC[C@@H](C(C)C)[C@@H](O)[C@H](O)[C@@H](C)[C@H]1CCC2C3COC(=O)C4C[C@H](O)[C@H](O)C[C@]4(C)C3CC[C@@]21C (stereo partly shown)
assayEndpoint: Germination rate
unitInfo: %
numericReadout: 46
